The reported numbers originate from paper PMC7252619.

Biological target: NEK2 (Homo sapiens)
Construct: purchased ReactionBiology
Assay: Kinase activity test (ReactionBiology), % enzyme activity relative to DMSO
Assay type: biochemical
Details: NEK2; 10 uM; replicate Data 1; read-out: % Enzyme Activity (relative to DMSO controls), Data 1
What remaining activity at 10 µM was measured for each of the following?
One number for each entry, in %.

Batch: remaining activity at 10 µM for all items listed.
1. C[C@]12CC[C@@H]3c4ccc(O)cc4CC[C@H]3[C@@H]1CC[C@@H]2O [Estradiol, reference compound]
2. Cc1cccc(C)c1OCC(=O)N[C@@H](Cc1ccccc1)[C@@H](O)C[C@H](Cc1ccccc1)NC(=O)[C@H](C(C)C)N1CCCNC1=O [Lopinavir, reference compound]
3. NC[C@H]1CC[C@H](C(=O)O)CC1 [Tranexamic acid]

a:
1: 94.9; 2: 98.3; 3: 72.1

Batch: remaining activity at 10 µM for all items listed.
1. N[C@@H](CC(=O)N1CCn2c(nnc2C(F)(F)F)C1)Cc1cc(F)c(F)cc1F [Sitagliptin]
2. Cc1nc(Nc2ncc(C(=O)Nc3c(C)cccc3Cl)s2)cc(N2CCN(CCO)CC2)n1 [Dasatinib, reference compound]
3. Nc1ncnc2c1ncn2[C@@H]1O[C@H](CO)[C@@H](O)[C@H]1O [Adenosine, reference compound]

a:
[82.7, 20, 77.2]

Batch: remaining activity at 10 µM for all items listed.
1. CN1CCN(CCCN2c3ccccc3Sc3ccc(Cl)cc32)CC1 [Prochlorperazine, reference compound]
2. NC(=O)c1cccnc1 [Niacinamide, reference compound]
3. Nc1ccc2cc3ccc(N)cc3nc2c1 [Proflavine, reference compound]

a:
1. 69.6
2. 65
3. 49

Batch: remaining activity at 10 µM for all items listed.
1. N[C@@H](Cc1cc(I)c(Oc2cc(I)c(O)c(I)c2)c(I)c1)C(=O)O [Thyroxine, reference compound]
2. O=C(O)c1ccccc1O [Salicylic acid]
3. CC/C(=C(/CC)c1ccc(O)cc1)c1ccc(O)cc1 [Diethylstilbestrol, reference compound]

a:
1: 47.1; 2: 93.8; 3: 44.7

###

Target: DAPK1 (Homo sapiens, UniProt P53355)
Construct: purchased ReactionBiology
Sequence (P53355 whole entry): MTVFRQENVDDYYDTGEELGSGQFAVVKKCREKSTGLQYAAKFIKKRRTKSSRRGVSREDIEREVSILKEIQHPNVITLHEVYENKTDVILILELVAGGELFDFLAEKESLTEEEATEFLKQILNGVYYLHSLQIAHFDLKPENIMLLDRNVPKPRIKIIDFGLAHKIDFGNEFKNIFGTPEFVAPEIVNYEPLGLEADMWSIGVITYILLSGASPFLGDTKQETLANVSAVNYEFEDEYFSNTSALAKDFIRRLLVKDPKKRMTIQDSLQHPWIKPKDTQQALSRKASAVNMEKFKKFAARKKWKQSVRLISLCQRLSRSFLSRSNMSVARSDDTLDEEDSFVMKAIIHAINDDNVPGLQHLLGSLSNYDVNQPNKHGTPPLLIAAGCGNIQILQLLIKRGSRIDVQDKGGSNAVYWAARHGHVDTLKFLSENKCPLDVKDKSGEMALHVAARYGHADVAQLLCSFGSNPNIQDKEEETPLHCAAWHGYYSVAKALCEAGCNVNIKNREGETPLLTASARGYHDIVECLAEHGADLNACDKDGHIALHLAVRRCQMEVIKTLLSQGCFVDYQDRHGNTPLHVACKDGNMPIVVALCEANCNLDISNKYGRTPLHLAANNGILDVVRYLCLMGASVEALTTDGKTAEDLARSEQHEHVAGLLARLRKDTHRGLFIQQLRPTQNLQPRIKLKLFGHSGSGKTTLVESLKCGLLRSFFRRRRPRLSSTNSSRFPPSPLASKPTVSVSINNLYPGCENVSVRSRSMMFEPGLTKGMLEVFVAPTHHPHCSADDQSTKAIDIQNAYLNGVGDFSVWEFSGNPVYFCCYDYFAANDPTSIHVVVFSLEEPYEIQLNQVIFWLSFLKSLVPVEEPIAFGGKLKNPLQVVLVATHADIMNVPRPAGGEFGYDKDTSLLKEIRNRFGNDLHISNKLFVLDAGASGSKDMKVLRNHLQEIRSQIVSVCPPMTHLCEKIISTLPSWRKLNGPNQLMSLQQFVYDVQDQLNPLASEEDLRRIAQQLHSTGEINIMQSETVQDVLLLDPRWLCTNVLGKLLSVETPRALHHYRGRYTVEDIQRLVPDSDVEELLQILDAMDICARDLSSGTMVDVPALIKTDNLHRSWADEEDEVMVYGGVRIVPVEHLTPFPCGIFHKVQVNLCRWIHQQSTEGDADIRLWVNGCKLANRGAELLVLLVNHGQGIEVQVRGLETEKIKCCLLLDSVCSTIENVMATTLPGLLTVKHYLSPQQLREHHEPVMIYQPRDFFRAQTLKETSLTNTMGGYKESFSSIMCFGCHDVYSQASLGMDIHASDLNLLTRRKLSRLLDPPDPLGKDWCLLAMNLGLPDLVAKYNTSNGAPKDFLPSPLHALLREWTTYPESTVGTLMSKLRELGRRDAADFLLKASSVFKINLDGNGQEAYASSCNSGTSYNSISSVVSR
Test: Kinase activity test (ReactionBiology), % enzyme activity relative to DMSO
Assay type: biochemical
Conditions: DAPK1; 1 uM; replicate Data 1; read-out: % Enzyme Activity (relative to DMSO controls), Data 1
What remaining activity at 1 µM was measured for each of the following?
One number for each entry, in %.

Compound	Unit string	remaining activity at 1 µM
CC(C)c1nc(CN(C)C(=O)N[C@H](C(=O)N[C@@H](Cc2ccccc2)C[C@H](O)[C@H](Cc2ccccc2)NC(=O)OCc2cncs2)C(C)C)cs1 [Ritonavir, reference compound]	%	94.8
Cc1cccc(C)c1OCC(=O)N[C@@H](Cc1ccccc1)[C@@H](O)C[C@H](Cc1ccccc1)NC(=O)[C@H](C(C)C)N1CCCNC1=O [Lopinavir, reference compound]	%	87.6
CC(C)(C)NC(=O)[C@@H]1C[C@@H]2CCCC[C@@H]2CN1C[C@@H](O)[C@H](Cc1ccccc1)NC(=O)[C@H](CC(N)=O)NC(=O)c1ccc2ccccc2n1 [Saquinavir, reference compound]	%	88.8

Batch: remaining activity at 1 µM for all items listed.
1. NCCCCCC(=O)O
2. C[C@]12CC[C@@H]3c4ccc(O)cc4CC[C@H]3[C@@H]1CC[C@@H]2O [Estradiol, reference compound]
3. Nc1ncnc2c1ncn2[C@@H]1O[C@H](CO)[C@@H](O)[C@H]1O [Adenosine, reference compound]

a:
[116, 98, 103]

###

What % Enzyme Activity (relative to DMSO controls), Data 1 was measured for each of the following?
Molecular target: NEK2 (Homo sapiens)
Construct: purchased ReactionBiology
Assay: Kinase activity test (ReactionBiology), % enzyme activity relative to DMSO
Assay type: biochemical
Conditions: NEK2; 10 uM; replicate Data 1
Numbers only, in %.

Study these solved cases before continuing.
Compound	Value
C[C@H](O)[C@H](O)[C@H]1CNc2nc(N)[nH]c(=O)c2N1	92.39
Nc1nc2[nH]cnc2c(=S)[nH]1	110.57
CCCc1nn(C)c2c(=O)[nH]c(-c3cc(S(=O)(=O)N4CCN(C)CC4)ccc3OCC)nc12	85.23

Batch: % Enzyme Activity (relative to DMSO controls), Data 1 for all items listed.
1. O=C1Nc2ccc(Cl)cc2[C@@](C#CC2CC2)(C(F)(F)F)O1
2. Cc1nc(=O)c2cc(CN(C)c3ccc(C(=O)N[C@@H](CCC(=O)O)C(=O)O)s3)ccc2[nH]1
3. CCc1nc(N)nc(N)c1-c1ccc(Cl)cc1

a:
81.38
101.42
102.17

###

What remaining activity at 10 µM was measured for each of the following?
Molecular target: DAPK1 (Homo sapiens, UniProt P53355)
Construct: purchased ReactionBiology
Assay: Kinase activity test (ReactionBiology), % enzyme activity relative to DMSO
Format: biochemical
Settings: DAPK1; 10 uM; replicate Data 2; read-out: % Enzyme Activity (relative to DMSO controls), Data 2
One number for each entry, in %.

Study these solved cases before continuing.
Molecule	remaining activity at 10 µM, %
C[C@]12CC[C@@H]3c4ccc(O)cc4CC[C@H]3[C@@H]1CC[C@@H]2O [Estradiol, reference compound]	69.7
Nc1ncnc2c1ncn2[C@@H]1O[C@H](CO)[C@@H](O)[C@H]1O [Adenosine, reference compound]	81.4
C=CC(=O)N1CCC[C@@H](n2nc(-c3ccc(Oc4ccccc4)cc3)c3c(N)ncnc32)C1 [Ibrutinib, reference compound]	23.5
CC(=O)O[C@H]1C[C@@]2(C)[C@@H](C[C@@H](O)[C@H]3[C@@]4(C)CC[C@@H](O)[C@@H](C)[C@@H]4CC[C@@]32C)/C1=C(\CCC=C(C)C)C(=O)O	94.5
NCCCCCC(=O)O	111
CN(C)CCOc1ccc(/C(=C(/CCCl)c2ccccc2)c2ccccc2)cc1 [Toremifene, reference compound]	14.6

Let's switch to this molecule now.
q: Look up remaining activity at 10 µM for this molecule: Cc1cccc(C)c1OCC(=O)N[C@@H](Cc1ccccc1)[C@@H](O)C[C@H](Cc1ccccc1)NC(=O)[C@H](C(C)C)N1CCCNC1=O [Lopinavir, reference compound]
a: 52.5

###

Biological target: VEGFR2 (Homo sapiens, UniProt P35968)
Sequence (P35968 20-1356): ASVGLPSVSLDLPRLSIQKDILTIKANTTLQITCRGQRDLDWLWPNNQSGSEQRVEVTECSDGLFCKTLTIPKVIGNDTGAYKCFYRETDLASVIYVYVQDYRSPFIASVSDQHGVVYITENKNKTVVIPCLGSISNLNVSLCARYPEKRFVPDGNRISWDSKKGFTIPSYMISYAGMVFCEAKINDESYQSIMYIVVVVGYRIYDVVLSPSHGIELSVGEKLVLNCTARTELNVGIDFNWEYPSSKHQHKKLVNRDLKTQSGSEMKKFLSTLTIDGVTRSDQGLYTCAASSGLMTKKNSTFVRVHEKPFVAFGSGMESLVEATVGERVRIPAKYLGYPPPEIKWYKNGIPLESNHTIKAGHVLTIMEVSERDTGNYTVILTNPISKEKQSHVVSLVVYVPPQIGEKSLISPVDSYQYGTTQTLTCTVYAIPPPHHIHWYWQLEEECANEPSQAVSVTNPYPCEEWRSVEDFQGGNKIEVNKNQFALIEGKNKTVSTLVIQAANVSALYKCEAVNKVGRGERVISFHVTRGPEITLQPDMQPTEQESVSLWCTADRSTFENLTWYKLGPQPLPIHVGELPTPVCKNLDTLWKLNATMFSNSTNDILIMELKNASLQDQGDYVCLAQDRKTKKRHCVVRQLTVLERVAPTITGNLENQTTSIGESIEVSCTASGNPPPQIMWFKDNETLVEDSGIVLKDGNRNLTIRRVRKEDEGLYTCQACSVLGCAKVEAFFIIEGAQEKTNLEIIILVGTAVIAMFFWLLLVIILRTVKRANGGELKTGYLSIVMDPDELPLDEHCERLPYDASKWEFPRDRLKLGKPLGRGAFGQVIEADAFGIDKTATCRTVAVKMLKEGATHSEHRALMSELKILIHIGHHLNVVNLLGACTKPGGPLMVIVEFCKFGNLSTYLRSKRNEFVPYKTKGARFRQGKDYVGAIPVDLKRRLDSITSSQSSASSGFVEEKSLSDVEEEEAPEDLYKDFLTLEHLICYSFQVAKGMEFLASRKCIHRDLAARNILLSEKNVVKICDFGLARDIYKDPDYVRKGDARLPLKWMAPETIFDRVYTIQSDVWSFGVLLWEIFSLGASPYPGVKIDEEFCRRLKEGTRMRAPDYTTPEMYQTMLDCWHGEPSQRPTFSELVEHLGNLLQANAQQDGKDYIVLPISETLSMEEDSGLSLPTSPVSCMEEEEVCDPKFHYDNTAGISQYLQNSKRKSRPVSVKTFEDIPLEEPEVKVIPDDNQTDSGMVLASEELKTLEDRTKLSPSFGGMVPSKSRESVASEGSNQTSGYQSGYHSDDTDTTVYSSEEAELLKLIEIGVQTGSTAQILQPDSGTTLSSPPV
Assay: Kinase activity test (ReactionBiology), % enzyme activity relative to DMSO;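 for % Enzyme Activity (relative to DMSO controls), Average: VEGFR2 was one member of a ten-kinase screening panel testing marketed FDA-approved drugs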
Format: biochemical
Set-up: purchased ReactionBiology
Conditions: VEGFR2; 1 uM; Average
Property label: % Enzyme Activity (relative to DMSO controls), Average (%)
Answers are plain numbers, in %.

Study these solved cases before continuing.
Compound	Value
CC(=O)[C@]1(O)Cc2c(O)c3c(c(O)c2[C@@H](O[C@H]2C[C@H](N)[C@H](O)[C@H](C)O2)C1)C(=O)c1ccccc1C3=O [Idarubicin]	111.69
CN(C)CCCN1c2ccccc2Sc2ccc(Cl)cc21 [Chlorpromazine]	105.46
C[C@]12CC[C@@H]3c4ccc(O)cc4CC[C@H]3[C@@H]1CCC2=O [Estrone]	106.40
CN[C@H]1CC[C@@H](c2ccc(Cl)c(Cl)c2)c2ccccc21 [Sertraline]	106.32
Cc1ccc(-c2cc(C(F)(F)F)nn2-c2ccc(S(N)(=O)=O)cc2)cc1 [Celecoxib]	113.33
CN1CC(=O)N2[C@H](c3ccc4c(c3)OCO4)c3[nH]c4ccccc4c3C[C@@H]2C1=O [Tadalafil]	102.42
C[C@H](O)[C@H](O)[C@H]1CNc2nc(N)[nH]c(=O)c2N1 [Sapropterin]	98.99

Let's switch to this compound now.
q: Look up % Enzyme Activity (relative to DMSO controls), Average for this compound: CC(C)(Oc1ccc(CCNC(=O)c2ccc(Cl)cc2)cc1)C(=O)O [Bezafibrate]
a: 106.10

###

Target: NEK2 (Homo sapiens, UniProt P51955)
Construct: purchased ReactionBiology
Sequence (P51955 whole entry): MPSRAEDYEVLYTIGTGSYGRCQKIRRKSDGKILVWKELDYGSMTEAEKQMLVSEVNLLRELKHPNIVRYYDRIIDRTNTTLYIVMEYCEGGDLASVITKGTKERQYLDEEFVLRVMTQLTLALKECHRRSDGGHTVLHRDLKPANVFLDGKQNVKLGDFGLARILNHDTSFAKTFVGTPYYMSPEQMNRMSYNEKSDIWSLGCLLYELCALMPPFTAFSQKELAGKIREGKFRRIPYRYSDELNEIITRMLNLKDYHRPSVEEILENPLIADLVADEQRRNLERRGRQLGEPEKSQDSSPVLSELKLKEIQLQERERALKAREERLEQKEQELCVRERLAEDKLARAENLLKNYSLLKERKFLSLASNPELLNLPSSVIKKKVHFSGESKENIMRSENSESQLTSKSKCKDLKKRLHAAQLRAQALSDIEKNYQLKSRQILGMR
Test: Kinase activity test (ReactionBiology), % enzyme activity relative to DMSO
Type: biochemical
Details: NEK2; compound at 1 uM; replicate 2
What % Enzyme Activity (relative to DMSO controls), Data 2 was measured for each of the following?
Numbers only, in %.

Compound	Value
Cc1ccc(C(=O)c2ccc(CC(=O)O)n2C)cc1 [Tolmetin]	109.96

Batch: % Enzyme Activity (relative to DMSO controls), Data 2 for all items listed.
1. c1coc(CNc2ncnc3[nH]cnc23)c1 [Kinetin]
2. CC(=O)OCC1=C(C(=O)O)N2C(=O)[C@@H](NC(=O)Cc3cccs3)[C@H]2SC1 [Cephalothin]
3. Nc1nc2c(ncn2COC(CO)CO)c(=O)[nH]1 [Ganciclovir]

a:
[106.95, 101.41, 110.21]

q: Look up % Enzyme Activity (relative to DMSO controls), Data 2 for this compound: OC[C@@H](O)[C@@H](O)[C@H](O)[C@H](O)CO [Mannitol]
a: 115.31

###

What remaining activity at 10 µM was measured for each of the following?
Target: DAPK1 (Homo sapiens, UniProt P53355)
Construct: purchased ReactionBiology
Experiment: Kinase activity test (ReactionBiology), % enzyme activity relative to DMSO
Assay type: biochemical
Conditions: DAPK1; 10 uM; replicate Data 2; read-out: % Enzyme Activity (relative to DMSO controls), Data 2
Answer format: value, then unit.

Study these solved cases before continuing.
Compound	remaining activity at 10 µM
NC(=O)c1cccnc1 [Niacinamide, reference compound]	103%
Cc1nc(Nc2ncc(C(=O)Nc3c(C)cccc3Cl)s2)cc(N2CCN(CCO)CC2)n1 [Dasatinib, reference compound]	52.8%
CC(C)(C)NC(=O)[C@@H]1C[C@@H]2CCCC[C@@H]2CN1C[C@@H](O)[C@H](Cc1ccccc1)NC(=O)[C@H](CC(N)=O)NC(=O)c1ccc2ccccc2n1 [Saquinavir, reference compound]	27.8%

Let's switch to this compound now.
q: Look up remaining activity at 10 µM for this compound: CC(C)c1nc(CN(C)C(=O)N[C@H](C(=O)N[C@@H](Cc2ccccc2)C[C@H](O)[C@H](Cc2ccccc2)NC(=O)OCc2cncs2)C(C)C)cs1 [Ritonavir, reference compound]
a: 37.7%
